Consider the following compounds; for each one, report its IC50.
Tested On: Voltage-gated inwardly rectifying potassium channel KCNH2 (Homo sapiens, UniProt Q12809)
Sequence (Q12809 whole entry): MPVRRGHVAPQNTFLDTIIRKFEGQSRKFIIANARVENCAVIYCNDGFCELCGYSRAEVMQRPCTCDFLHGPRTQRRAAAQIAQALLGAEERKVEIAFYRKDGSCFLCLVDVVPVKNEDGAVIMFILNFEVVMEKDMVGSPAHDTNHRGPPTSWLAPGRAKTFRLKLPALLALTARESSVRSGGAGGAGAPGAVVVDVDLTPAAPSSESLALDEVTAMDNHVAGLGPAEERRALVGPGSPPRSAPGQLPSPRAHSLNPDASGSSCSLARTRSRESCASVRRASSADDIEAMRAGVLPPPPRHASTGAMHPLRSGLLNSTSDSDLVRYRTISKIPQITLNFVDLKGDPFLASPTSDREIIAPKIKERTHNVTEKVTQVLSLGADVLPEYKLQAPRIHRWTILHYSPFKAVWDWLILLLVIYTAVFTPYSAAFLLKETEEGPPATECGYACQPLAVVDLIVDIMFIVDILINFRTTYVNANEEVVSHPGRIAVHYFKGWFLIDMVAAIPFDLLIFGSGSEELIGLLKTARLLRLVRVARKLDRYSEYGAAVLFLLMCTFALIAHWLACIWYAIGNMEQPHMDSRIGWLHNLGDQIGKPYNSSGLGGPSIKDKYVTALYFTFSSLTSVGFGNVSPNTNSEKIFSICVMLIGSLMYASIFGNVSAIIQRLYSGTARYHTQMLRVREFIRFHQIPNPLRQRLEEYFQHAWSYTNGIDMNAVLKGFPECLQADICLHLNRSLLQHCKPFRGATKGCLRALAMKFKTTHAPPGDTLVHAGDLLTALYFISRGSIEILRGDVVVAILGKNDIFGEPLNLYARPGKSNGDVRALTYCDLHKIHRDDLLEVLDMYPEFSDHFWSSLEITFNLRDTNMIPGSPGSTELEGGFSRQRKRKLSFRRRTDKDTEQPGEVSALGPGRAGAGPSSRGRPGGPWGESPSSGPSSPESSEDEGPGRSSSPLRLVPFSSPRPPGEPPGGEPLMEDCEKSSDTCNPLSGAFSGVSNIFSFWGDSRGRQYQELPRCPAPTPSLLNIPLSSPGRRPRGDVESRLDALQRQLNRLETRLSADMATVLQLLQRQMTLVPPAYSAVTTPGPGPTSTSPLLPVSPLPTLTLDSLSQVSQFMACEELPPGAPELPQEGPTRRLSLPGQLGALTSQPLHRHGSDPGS
Test Name: Inhibition of human ERG expressed in HEK293 cells assessed as inhibition of potassium channel current after 5 mins by patch clamp assay
Kindly provide the numeric value in µM only, without the unit symbol.

IC50 reading for CCc1c(C(=O)NC(C)(C)c2nnnn2C)nn(-c2ccc(Cl)cc2Cl)c1-c1ccc(Br)cc1 : 22.7

IC50 reading for Cc1c(C(=O)NN2CCCCC2)nn(-c2ccc(Cl)cc2Cl)c1-c1ccc(Cl)cc1 : 2.79

====

Test Name: AUC (0 to 24 hrs) in Swiss albino mouse at 30 mg/kg, po
Type: ADME, organism-based
Set-up: time < 24 hr, dose 30 mg/kg, route oral
Test Context: plasma
Readout Name: AUC(0-t) at 24 h (ng·h/mL)
Kindly provide the numeric value in ng·h/mL only, without the unit symbol.

AUC(0-t) at 24 h reading for Cc1c(C(=O)NC2(c3noc(C(F)(F)F)n3)CC2)nn(-c2ccc(Cl)cc2Cl)c1-c1ccc(Cl)cc1 : 4300

====

Consider the following compounds; for each one, report its IC50.
Kindly provide the numeric value in µM only, without the unit symbol.

Tested on Cannabinoid receptor 1 (Rattus norvegicus), the item CCOC(=O)Cc1csc(C(C)(C)NC(=O)c2nn(-c3ccc(Cl)cc3Cl)c(-c3ccc(Cl)cc3)c2C)n1 showed IC50 equal to 0.01

Tested on Cannabinoid receptor 1 (Rattus norvegicus), the item CCC(C)(NC(=O)c1nn(-c2ccc(Cl)cc2Cl)c(-c2ccc(Cl)cc2)c1C)c1noc(C(F)(F)F)n1 (stereo not given) showed IC50 equal to 0.006

Tested on Cannabinoid receptor 1 (Rattus norvegicus), the item Cc1csc(C(C)(C)NC(=O)c2nn(-c3ccc(Cl)cc3Cl)c(-c3ccc(Cl)cc3)c2C)n1 showed IC50 equal to 0.015

Tested on Cannabinoid receptor 1 (Rattus norvegicus), the item CC(C)(NC(=O)c1cn(-c2ccc(Cl)cc2Cl)c(-c2ccc(Cl)cc2)n1)c1nnc(C(F)(F)F)o1 showed IC50 equal to 0.013

Tested on Cannabinoid receptor 1 (Rattus norvegicus), the item Cc1c(C(=O)NC(C)(C)c2nnc(C(F)(F)F)o2)nn(-c2ccc(Cl)cc2Cl)c1-c1ccc(Cl)cc1 showed IC50 equal to 0.006

All values here come from ChEMBL document CHEMBL1811766.
